B1: ZNF263 (parent)
chain: RTHTGEKPYKCTLCGENFSHRSNL

Variants of: B1
testSummary: protein stability index of a GFP-peptide fusion (GPS, HEK-293T) (PSI 1-6); higher = more stable;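 note: lentivirally expressed fusions sorted by FACS into six bins by GFP to DsRed ratio, PSI derived from sequencing read proportions per bin multiplied by bin number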
conditionParameters: c terminus: a fixed tail appended
Form field: protein stability index (one value per entry).

variantNotation: K10S
protein stability index: 1.58

variantNotation: N23L
protein stability index: 1.69

variantNotation: R21A
protein stability index: 2.59

variantNotation: H20S
protein stability index: 2.32

variantNotation: N17M
protein stability index: 1.76

variantNotation: L13Q
protein stability index: 2.16

variantNotation: N23C
protein stability index: 3.48

variantNotation: F18L
protein stability index: 1.96

variantNotation: F18V
protein stability index: 1.88
